# RUN DESCRIPTION: in vivo
# DETAILS: male, Syrian golden, hamster, po, 500 mg/kg
Hi there, I'd appreciate the recorded Cmax for every entry that follows.
Answer by giving the amount and then stating its unit.

C[C@@]1(F)[C@H](O)[C@@H](CO)O[C@H]1n1cnc2c(=O)[nH]c(N)nc21 : 900 nM

Consider the following items and state reported Cmax for each.
1. CNc1nc(N)nc2c1ncn2C1OC(COP(=O)(O)NC(C)C(=O)O)C(O)C1(C)F (stereo not drawn)
2. CNc1nc(N)nc2c1ncn2C1OC(COP(=O)(NC(C)C(=O)OC(C)C)Oc2ccccc2)C(O)C1(C)F (stereo not drawn)

Output:
52400 nM
600 nM
